Tested on: LXRa homodimer (NR concentration 270 nM)
protocol_details: PBM binding z-score (relative to random genomic background probes); higher = stronger binding; sequences stand for … in GC…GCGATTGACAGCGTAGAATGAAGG
Quick reference for PBM binding z-score among some sequences
Reply with the value as a number alone.

- construct_sequence: "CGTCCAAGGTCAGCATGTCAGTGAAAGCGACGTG"
  PBM binding z-score: -0.309
- construct_sequence: "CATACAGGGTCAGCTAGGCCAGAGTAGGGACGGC"
  PBM binding z-score: -0.378
- construct_sequence: "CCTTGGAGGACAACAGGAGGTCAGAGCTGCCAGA"
  PBM binding z-score: 2.44

I'd like to know its PBM binding z-score. The sequence in question is `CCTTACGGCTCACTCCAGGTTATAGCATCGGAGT`
1.31

Using the record for `GTACAAAGGTGAATAGGTCGTTGATGAGTAGGCG` , report its PBM binding z-score.
0.326

Could you share which PBM binding z-score value was measured for `GCGACTGGCGCATCAGCAGGTTACCATAACTTAA` ?
-0.313

====

Tested on: PPARg DBDmut IVT, anti-PPARg (DBD mutation: PPARg1 K132A/R137A, NR concentration 270 nM)
protocol_details: PBM binding z-score (relative to random genomic background probes); higher = stronger binding; sequences stand for … in GC…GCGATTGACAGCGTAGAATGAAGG
reported_property: PBM binding z-score

Check out these entries, answers already filled in.
- construct_sequence: "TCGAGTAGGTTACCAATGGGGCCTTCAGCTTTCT"
  PBM binding z-score: -1.23
- construct_sequence: "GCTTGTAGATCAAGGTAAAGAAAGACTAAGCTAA"
  PBM binding z-score: 0.000518
- construct_sequence: "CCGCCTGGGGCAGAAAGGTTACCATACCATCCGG"
  PBM binding z-score: -1.51
- construct_sequence: "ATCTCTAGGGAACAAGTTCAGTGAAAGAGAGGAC"
  PBM binding z-score: 0.258
- construct_sequence: "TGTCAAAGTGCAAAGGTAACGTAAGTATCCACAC"
  PBM binding z-score: 0.92

Query (sequence): `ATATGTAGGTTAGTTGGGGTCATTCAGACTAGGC` ; field requested: PBM binding z-score
2.15

====

Listed here are sequences together with their documented PBM binding z-score.
Tested on: PXR:RXRa (NR concentration 270 nM, RXRa partner concentration 90 nM)
protocol_details: PBM binding z-score (relative to random genomic background probes); higher = stronger binding; sequences stand for … in GC…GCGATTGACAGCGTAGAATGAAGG
// keep it numeric: no unit symbol after the value

Use these answered entries as a reference point.
- construct_sequence: "TAGCCTAGGTCATTGGGCCAGTGTAGTACGCATC"
  PBM binding z-score: 1.41
- construct_sequence: "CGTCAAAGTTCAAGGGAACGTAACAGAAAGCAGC"
  PBM binding z-score: 3.89
- construct_sequence: "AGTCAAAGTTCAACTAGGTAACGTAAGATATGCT"
  PBM binding z-score: 5.04

What PBM binding z-score value was documented for this sequence, `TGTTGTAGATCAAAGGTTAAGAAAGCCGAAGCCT` ?
2.04

What PBM binding z-score value was documented for this sequence, `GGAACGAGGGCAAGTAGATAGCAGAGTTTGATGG` ?
0.344

Any idea what its PBM binding z-score is? The sequence is `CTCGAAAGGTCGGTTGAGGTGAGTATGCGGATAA`
2.93

May I ask what PBM binding z-score has been recorded for `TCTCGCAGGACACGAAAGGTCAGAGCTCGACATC` ?
3.87

What PBM binding z-score value was documented for this sequence, `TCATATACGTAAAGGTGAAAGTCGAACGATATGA` ?
1.1
